# koff per record follows
Molecular target: T1, human IL-2Rβ (human, UniProt P14784 27-240, limits assumed)
T1 construct: recombinant protein, coated or immobilised; also called hu IL-2R; IL-2R beta
T1 sequence: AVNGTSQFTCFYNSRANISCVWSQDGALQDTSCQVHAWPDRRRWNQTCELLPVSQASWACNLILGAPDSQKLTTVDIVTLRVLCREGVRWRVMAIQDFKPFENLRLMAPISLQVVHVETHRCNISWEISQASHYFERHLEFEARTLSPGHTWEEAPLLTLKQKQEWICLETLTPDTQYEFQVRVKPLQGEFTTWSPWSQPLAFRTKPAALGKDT
Test: SPR, P.E. off-rate
Could you give me the number in s⁻¹? Just the number is fine.

Sample answers from the record:
binder	unit-string	assay-result
FJ1427_P035MP02D06 (VHH, soluble VHH in periplasmic extract; also called clone nr; 140) VHH: EVQLVESGGGLVQTGGSLRLSCAASGSQFINDVMGWYRQVPGKQRELVADMDDTGSTKYADSVKGRFTILRDSVKNTAYLQMSNLKPEDTGVYYCKAGLWIKGRHSDYWGQGTQVTVSS	s⁻¹	0.000374
FJ1427 P035MP02F04 (VHH, soluble VHH in periplasmic extract; also called clone nr) VHH: EVQLVESGGGLVQTGGSLRLSCAASGSQFINDVMGWYRQVPGKQRELVADMDDTGSTKYADSVKGRFTILRDSVKNTAYLQMSNLKPEDTGVYYCKAGLWIKGRHFDYWGQGTQVTVSS	s⁻¹	0.000343
FJ1427 P035MP02D08 (VHH, soluble VHH in periplasmic extract; also called clone nr) VHH: EVQLVESGGGLVQAGGSLRLSCVVSGDVFVRYTMAWFRQAPGKEREFVTSITDSGRTTEYVDSVKGRFTVSRDNAKNTVYLQMNNLKPEDTAVYYCAANTDYFRIRSLDANTWGQGTQVTVSS	s⁻¹	0.00236
FJ1427 P035MP02D11 (VHH, soluble VHH in periplasmic extract; also called clone nr; 180) VHH: QVQLQESGGGLVQAGDSLRISCAASGRIFSNYAMGWFRQAPGKETEFVAGITHLTSTTHYADSVKGRFTISRDNAKNTMHLQMNNLKPEDTALYYCAADRNIKITADWSYWGQGTQVTVAS	s⁻¹	0.000833
FJ1427_P035MP02E07 (VHH, soluble VHH in periplasmic extract; also called clone nr) VHH: QVQLVESGGGLVQAGGSLGLACALSGDVFVRYTMAWFRQAPGKEREFVASVTDSGRTTDYVASVQGRFTVSRDNNKNTVYLQMNSLKPEDTAVYYCAANTDYFQIRSLDRNTWGQGTQVTVSS	s⁻¹	0.000577
FJ1427_P035MP02A03 (VHH, soluble VHH in periplasmic extract; also called clone nr) VHH: QVQLVESGGGLVQPGGSLRLSCAASGFTFSNYAMSWVRQAPGKGLEWVSSITGAGRGTYYAESVKGRFTISRDNDKNTLYLQMNSLKPEDTAVYYCAKYDSSTFYPPTPARGIADRGQGTRVTVSS	s⁻¹	0.000571

-- ask Complete the entry with koff for FJ1427_P035MP02A05 (VHH, soluble VHH in periplasmic extract; also called clone nr) VHH: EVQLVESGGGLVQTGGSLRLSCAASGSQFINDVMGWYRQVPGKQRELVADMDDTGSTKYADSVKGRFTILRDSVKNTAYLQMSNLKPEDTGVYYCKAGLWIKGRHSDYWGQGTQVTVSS
-- reply 0.000444

-- ask Report measured koff; entry is FJ1427 P035MP02D09 (VHH, soluble VHH in periplasmic extract; also called clone nr) VHH: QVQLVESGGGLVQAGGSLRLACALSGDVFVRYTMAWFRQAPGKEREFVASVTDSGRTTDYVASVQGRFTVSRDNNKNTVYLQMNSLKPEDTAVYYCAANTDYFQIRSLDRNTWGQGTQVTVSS
-- reply 0.000498

-- ask Report koff for FJ1427 P035MP06E05 (VHH, soluble VHH in periplasmic extract; also called 24-MP06E05; clone nr; 517) VHH: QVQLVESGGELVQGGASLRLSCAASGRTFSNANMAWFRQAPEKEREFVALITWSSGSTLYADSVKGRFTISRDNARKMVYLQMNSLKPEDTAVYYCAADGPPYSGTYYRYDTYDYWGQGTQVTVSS
-- reply 0.000471

-- ask Determine from records and report koff for FJ1427_P035MP02H01 (VHH, soluble VHH in periplasmic extract; also called clone nr) VHH: QVQLVESGGGLVQPGGSLGLSCAASGFTFDNYAMSWVRQAPGKGLEWVSSITGAGRGTHYADSVKGRFTISRDNAKNTLYLQMNSLKPEDTAVYYCAKYSSSTYYPPTPARGTDYRGPGTQVTVSS
-- reply 0.00106

-- ask Note down koff recorded for FJ1427 P035MP02E02 (VHH, soluble VHH in periplasmic extract; also called clone nr) VHH: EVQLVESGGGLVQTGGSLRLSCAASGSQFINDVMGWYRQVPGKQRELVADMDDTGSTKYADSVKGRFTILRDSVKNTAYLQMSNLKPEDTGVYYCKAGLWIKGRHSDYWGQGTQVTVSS
-- reply 0.000269

-- ask Give a short answer stating reported koff for FJ1427_P035MP02D04 (VHH, soluble VHH in periplasmic extract; also called clone nr) VHH: QVQLVESGGGLVQTGGSLRLSCAVSGSRFISDVMGWYRQVPGKQRELVADMADGGSAKYADSVKGRFSILRDSVKNTVYLQMSSLKPEDTGIYYCKAGLWIAGRHSDYWGQGTQVTVSS .
-- reply 0.000358

-- ask Consider the binder FJ1427_P035MP02F10 (VHH, soluble VHH in periplasmic extract; also called clone nr) VHH: EVQLVESGGGLVQAGGSLRLSCVVSGDVFVRYTMAWFRQAPGKEREFVAVVTDSGRTTEYVDSVKGRFTVSRDNAKNTVYLQMNNLKPEDTAVYYCAANTDYFQIRSVDNNAWGQGTQVTVSS . State its measured koff.
-- reply 0.000788

-- ask Given the binder FJ1427 P035MP02A07 (VHH, soluble VHH in periplasmic extract; also called clone nr) VHH: QVQLVESGGGLVQAGGSLRLSCAVSGDVFVRYTMAWFRQAPGKEREFVATVTDSGRTTEYVDSVKGRFTVSRDNAKNTVYLQMNNLKPEDTAVYYCAANTDYFRIRSLDANTWGQGTQVTVSS , write its reported koff.
-- reply 0.00211

-- ask Give the reported koff for this binder. FJ1427 P035MP02D02 (VHH, soluble VHH in periplasmic extract; also called clone nr) VHH: QVQLVESGGGLVQVGGSLSVSCAASGRSFDSITMAYFRQAPGNEREFIAGINFSGSRTAYGDSVKGRFTISRDNAKNTVFLQMNSLNPEDTAVYYCAASPRGFYGPGHALYDYWGQGTQVTVSS
-- reply 0.000529

The measured values listed here are drawn from patent US20240409645A1.
